- Condition Context: Ebola virus entry assay, reporter ratio channel; Channel type: primary
Activity calls are given as the source filed them.
Outcomes: active, inactive

molecule=C[C@@H]1CN(c2c(F)c(N)c3c(=O)c(C(=O)O)cn(C4CC4)c3c2F)C[C@H](C)N1 class_label=inactive
molecule=CCOc1cc(NC(C)=O)ccc1C(=O)OC class_label=inactive
molecule=S=C(SSC(=S)N1CCCCC1)N1CCCCC1 class_label=inactive
molecule=CC1=C(C(=O)O)N2C(=O)[C@@H](N)[C@H]2SC1 class_label=inactive
molecule=O=C1C(I)=CC(=C(c2cc(I)c(O)c(I)c2)c2ccccc2C(=O)O)C=C1I class_label=inactive
molecule="CCCCCCCC(=O)OCC(O)CO (configuration not stated)" class_label=inactive
molecule=CO/C=C(/C(=O)OC)c1ccccc1Oc1cc(Oc2ccccc2C#N)ncn1 class_label=active
molecule="CC1(C)CC/C(=C/c2ccc(Cl)cc2)C1(O)Cn1cncn1 (configuration not stated)" class_label=inactive
molecule=Fc1cc(Br)ccc1CBr class_label=inactive
molecule=OCCCBr class_label=inactive
molecule=O=c1cc(-c2ccccc2)oc2ccccc12 class_label=active
molecule=CC(C)OC(=O)c1cc(C(=O)OC(C)C)cc([N+](=O)[O-])c1 class_label=inactive

* * *

- Tested on: PAD
- Test Summary: qHTS profiling for inhibitors of Plasmodium falciparum proliferation (AID 504749); note: nearly all actives have a fitted effect of over 60% in size; note: potency is the fitted concentration of half-maximal effect
- Condition Context: P. falciparum in erythrocytes, SYBR Green DNA, 72 h; series mostly up to 28.7 µM
Records with an inconclusive call do not appear. Calls of active or inactive are those of the source. Calls come from the whole dose curve; as a rule, active = well fitted inhibition curve with a large enough effect; inconclusive = small, poorly fitted or top-dose-only effect; inactive = flat fitted curve, though single readings scatter.
Reported Endpoint: Potency

compound=O=C(O)C(Cl)Cl reported_endpoint=Potency test_value=inactive
compound="CN1C2CCC1CC(OC(=O)c1cc(Cl)cc(Cl)c1)C2 (configuration not stated)" reported_endpoint=Potency test_value=inactive
compound="C#CC1(O)CCC2C3CCC4=CC(=O)CCC4(C)C3CCC21C (configuration not stated)" reported_endpoint=Potency test_value=inactive
compound="NC(=O)CN1CC(O)CC1=O (configuration not stated)" reported_endpoint=Potency test_value=inactive
compound="CC(C)NC(C)Cc1ccc(I)cc1 (configuration not stated)" reported_endpoint=Potency test_value=inactive
compound=COC(=O)[C@@H](N)CCCN=C(N)N[N+](=O)[O-] reported_endpoint=Potency test_value=inactive
compound=Cc1cc(O)ccc1Cl reported_endpoint=Potency test_value=inactive
compound=Cc1ccc(Cl)c(O)c1 reported_endpoint=Potency test_value=inactive
compound="CCCCCCCCCC(CC)c1ccc(S(=O)(=O)O)cc1 (configuration not stated)" reported_endpoint=Potency test_value=inactive
compound=C1CCC(NC2CCCCC2)CC1 reported_endpoint=Potency test_value=inactive
compound=CCCCc1ccc(C(=O)O)nc1 reported_endpoint=Potency test_value=inactive
compound=O=[N+]([O-])c1ccc([As](=O)(O)O)cc1 reported_endpoint=Potency test_value="7.94 µM (active)"

* * *

- Test Summary: MultiTox-Fluor Cytotoxicity Assay - LYMP1-002 - Live Cells (AID 955);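 note: cells exposed to compound for 16 hours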
- Condition Context: LYMP1-002 lymphoblastoid live-cell protease fluorescence viability; series mostly up to 46.1 µM
Records with an inconclusive call do not appear. Activity calls are given as the source filed them. Calls come from the whole dose curve; as a rule, active = well fitted cell-killing curve with a large enough effect; inconclusive = small, poorly fitted or top-dose-only effect, or effect the other way; inactive = flat fitted curve, though single readings scatter.
Reported Endpoint: outcome

molecule=CN(C)NC(=O)CCC(=O)O reported_endpoint=outcome test_value=inactive
molecule=C=CC(=O)NCNC(=O)C=C reported_endpoint=outcome test_value=inactive
molecule=CC(C)(O)C(=O)Nc1ccc([N+](=O)[O-])c(C(F)(F)F)c1 reported_endpoint=outcome test_value=inactive
molecule="CCCCC(CC)COC(=O)c1ccccc1C(=O)OCC(CC)CCCC (stereo not drawn)" reported_endpoint=outcome test_value=inactive
molecule=O=S(=O)(c1ccc(Cl)cc1)c1ccc(Cl)cc1 reported_endpoint=outcome test_value=inactive
molecule=c1cc2ccc3cccc4ccc(c1)c2c34 reported_endpoint=outcome test_value=inactive
molecule="COC(C)(C)CCCC(C)C/C=C/C(C)=C/C(=O)OC(C)C (stereo not drawn)" reported_endpoint=outcome test_value=inactive
molecule=COc1ccc(C(c2ccc(OC)cc2)C(Cl)(Cl)Cl)cc1 reported_endpoint=outcome test_value=inactive
molecule=CN(C)[C@@H]1C(=O)C(C(N)=O)=C(O)[C@@]2(O)C(=O)C3=C(O)c4c(O)cccc4[C@@](C)(O)[C@H]3[C@H](O)[C@@H]12 reported_endpoint=outcome test_value=inactive
molecule=O=[N+]([O-])c1c(Cl)c(Cl)cc(Cl)c1Cl reported_endpoint=outcome test_value=inactive
molecule=CCCCCCCCc1ccc(O)cc1 reported_endpoint=outcome test_value=inactive
molecule=Nc1ccc(Cl)cc1 reported_endpoint=outcome test_value=inactive
molecule=Nc1ccc([N+](=O)[O-])cc1 reported_endpoint=outcome test_value=inactive
molecule=Nc1ccc(Sc2ccc(N)cc2)cc1 reported_endpoint=outcome test_value=inactive
molecule=O=C(O)COc1ccccc1 reported_endpoint=outcome test_value=inactive
molecule=C1CCC(NC2CCCCC2)CC1 reported_endpoint=outcome test_value=inactive
molecule=O=C(O)C(Cl)Cl reported_endpoint=outcome test_value=inactive
molecule="CCOP(=O)(NC(C)C)Oc1ccc(SC)c(C)c1 (stereo not drawn)" reported_endpoint=outcome test_value=inactive
